molecules and their reported pIC50
# Target Under Test: Stat5:5
# Test Name: STATs DNA-binding activity in vitro, EMSA with MGFe probe
# Set-up: species or system mouse
# Condition Label: Table 4; read-out: IC50 values for the inhibition of STATs DNA-binding activity in vitro, Stat5:5
pIC50: −log10 of the molar value.

Input Smiles: Cc1cc(N=Nc2ccc(-c3ccc(N=Nc4ccc(O)c(C(=O)O)c4)cc3)cc2)c(N)c(N=Nc2cccc(OCC(=O)O)c2)c1N
pIC50: < 3.52
//
Input Smiles: O=C(O)c1cc(N=C2C=CC(=C(c3ccccc3)c3ccc(Nc4ccc(Cl)c(C(=O)O)c4)cc3)C=C2)ccc1Cl
pIC50: < 3.52

Record CN=C(Nc1ccccn1)c1ccc(NC(=O)c2ccc(C(=O)Nc3ccc(C(=NC)Nc4ccccn4)cc3)cc2)cc1 : what is its pIC50 with Stat5:5?
< 3.52
